Experiment: clinical
Conditions: both, human, plasma, oral, 6 mg
experimental readout: half-life (h)
Give bare numbers, in h.

Q: Could you please provide reported half-life for Cn1nnnc1Cn1nnc2c(N3CC[C@H](O)C3)nc(C(C)(C)C)nc21 [RO6868847] ? Thanks!
Result: 8.27

====

Experiment: Study BP40387 Part 1 (SAD) pharmacokinetics, healthy participants
Format: in vivo, human
Conditions: both sexes, human, plasma; single oral 100 mg, fasted, geo mean
experimental readout: Cmax (ng/mL)
Answers are plain numbers, in ng/mL.

Q: Could you please provide reported Cmax for Cn1nnnc1Cn1nnc2c(N3CC[C@H](O)C3)nc(C(C)(C)C)nc21 ? Thanks!
Result: 1120

====

Assay: Study BP40387 Part 1 (SAD) pharmacokinetics, healthy participants
Assay type: in vivo, human
Details: both sexes, human, plasma, po, 30 mg, single oral 30 mg, fasted, median; read-out: Tmax
experimental readout: Tmax (h)
Numbers only, in h.

Q: Could you please provide reported Tmax for Cn1nnnc1Cn1nnc2c(N3CC[C@H](O)C3)nc(C(C)(C)C)nc21 ? Thanks!
Result: 1.5

====

Experiment: Study BP40387 Part 1 (SAD) pharmacokinetics, healthy participants
Type: in vivo, human
Details: both sexes, human, plasma; single oral 3.0 mg, fasted, geo mean
experimental readout: Cmax (ng/mL)
Numbers only, in ng/mL.

Q: Could you please provide reported Cmax for Cn1nnnc1Cn1nnc2c(N3CC[C@H](O)C3)nc(C(C)(C)C)nc21 ? Thanks!
Result: 40

====

Biological target: CB2 receptor on B-cells (Homo sapiens, UniProt P34972)
Construct: B cells show a low but robust surface expression of CB2; endogenous in cells; host or cells: B cells in human whole blood (healthy participants, diabetic patients)
Sequence (P34972 whole entry): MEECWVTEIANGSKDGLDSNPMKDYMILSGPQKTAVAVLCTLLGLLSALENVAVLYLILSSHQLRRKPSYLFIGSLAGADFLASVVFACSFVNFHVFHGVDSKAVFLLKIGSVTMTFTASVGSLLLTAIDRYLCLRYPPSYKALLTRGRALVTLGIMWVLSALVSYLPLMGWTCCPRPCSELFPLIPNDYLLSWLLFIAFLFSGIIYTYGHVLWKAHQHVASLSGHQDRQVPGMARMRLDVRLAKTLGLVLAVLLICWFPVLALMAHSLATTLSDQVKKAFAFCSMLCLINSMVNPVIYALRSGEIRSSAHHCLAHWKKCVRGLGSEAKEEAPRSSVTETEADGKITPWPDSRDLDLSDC
Experiment: In vitro target engagement: CB2 surface expression on peripheral B cells in whole blood (flow cytometry)
Type: cell-based
Conditions: Mean IC50 (CB2 on B-cells) ± SD (nM), Healthy Participants, n = 9; 1 hour at 37° C.
experimental readout: IC50 (nM)
Answers are plain numbers, in nM.

Q: Could you please provide reported IC50 for Cn1nnnc1Cn1nnc2c(N3CC[C@H](O)C3)nc(C(C)(C)C)nc21 ? Thanks!
Result: 96.5

====

Assay: clinical
Settings: both, human, plasma, oral
experimental readout: half-life

Q: Could you please provide reported half-life for Cn1nnnc1Cn1nnc2c(N3CC[C@H](O)C3)nc(C(C)(C)C)nc21 ? Thanks!
Result: 8.27 to 39 h

====

Assay: Study BP40387 Part 1 (SAD) pharmacokinetics, healthy participants
Type: in vivo, human
Conditions: both sexes, human, plasma; single oral 3.0 mg, fasted, geo mean
experimental readout: AUC (ng·h/mL)
One number for each entry, in ng·h/mL.

Q: Could you please provide reported AUC for Cn1nnnc1Cn1nnc2c(N3CC[C@H](O)C3)nc(C(C)(C)C)nc21 ? Thanks!
Result: 435

====

Test: clinical
Conditions: both, human, plasma, oral, 200 mg
experimental readout: AUC (ng·h/mL)
Answers are plain numbers, in ng·h/mL.

Q: Could you please provide reported AUC for Cn1nnnc1Cn1nnc2c(N3CC[C@H](O)C3)nc(C(C)(C)C)nc21 [RO6868847] ? Thanks!
Result: 21400

====

Molecular target: CB2 (Rattus norvegicus, UniProt Q9QZN9)
Sequence (Q9QZN9 whole entry): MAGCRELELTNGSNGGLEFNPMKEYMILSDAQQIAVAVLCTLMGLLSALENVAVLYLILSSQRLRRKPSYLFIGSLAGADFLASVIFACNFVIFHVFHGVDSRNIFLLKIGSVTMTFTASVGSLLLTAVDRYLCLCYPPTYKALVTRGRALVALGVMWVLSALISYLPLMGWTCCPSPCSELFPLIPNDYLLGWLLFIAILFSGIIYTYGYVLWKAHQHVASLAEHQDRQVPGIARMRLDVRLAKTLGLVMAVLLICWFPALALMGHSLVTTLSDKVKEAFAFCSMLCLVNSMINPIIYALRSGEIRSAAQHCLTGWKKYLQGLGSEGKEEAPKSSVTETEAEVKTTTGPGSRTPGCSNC
Test: In vitro rat Ki
Type: binding
Conditions: rat; converted from nM
experimental readout: Ki (nM)
Give bare numbers, in nM.

Q: Could you please provide reported Ki for Cn1nnnc1Cn1nnc2c(N3CC[C@H](O)C3)nc(C(C)(C)C)nc21 ? Thanks!
Result: 33.5
